# System Name: Siglec-4a (MAG) (UniProt P20917)
# Assay Protocol: Hapten inhibition assay, Siglec-4a (MAG)
# Measurement Parameters: quotient IC50 reference compound / IC50 compound
Class satisfied: Siglec-4a (MAG) rIP at least 50. Class not satisfied: Siglec-4a (MAG) rIP below 50.

Worked cases, answers included:
1. COC1(C(=O)O)CC(O)C(NC(C)=O)C(C(O)C(O)CNC(=O)c2ccc3ccccc3n2)O1 (stereo not drawn): satisfied
2. COC1(C(=O)O)CC(O)C(NC(C)=O)C(C(O)C(O)CNC(=O)c2cccc3cc4ccccc4cc23)O1 (stereo not drawn): not satisfied
3. CO[C@]1(C(=O)O)C[C@H](O)[C@@H](NC(C)=O)[C@H]([C@H](O)[C@H](O)CNC(=O)c2cccc3ccccc23)O1: satisfied

Textbook exercise: given the entry CO[C@]1(C(=O)O)C[C@H](O)[C@@H](NC(C)=O)[C@H]([C@H](O)[C@H](O)CNC(=O)c2cc(O)cc(O)c2)O1 , state whether its Siglec-4a (MAG) rIP is greater than or equal to 50.
satisfied

Moving on to CO[C@]1(C(=O)O)C[C@H](O)[C@@H](NC(C)=O)[C@H]([C@H](O)[C@H](O)CNC(=O)c2ccc(NC(C)=O)cc2)O1
satisfied

Moving on to CO[C@]1(C(=O)O)C[C@H](O)[C@@H](NC(C)=O)[C@H]([C@H](O)[C@H](O)C[S+](C)[O-])O1 (stereo partly drawn)
not satisfied

Moving on to CO[C@]1(C(=O)O)C[C@H](O)[C@@H](NC(C)=O)[C@H]([C@H](O)[C@H](O)CNC(=O)C(CNC(C)=O)NC(C)=O)O1 (stereo partly drawn)
not satisfied

Moving on to COC1(C(=O)O)CC(O)C(NC(C)=O)C(C(O)C(O)CNC(=O)c2ccc3ccccc3c2)O1 (stereo not drawn)
satisfied

Moving on to COC(=O)C1(OC)CC(O)C(NC(=O)CF)C(C(O)C(O)CO)O1 (stereo not drawn)
not satisfied

Moving on to CCCC(=O)N[C@H]1[C@H]([C@H](O)[C@H](O)CO)O[C@@](OCc2ccccc2)(C(=O)O)C[C@@H]1O [Benzyl-α-5-N-butanoyl-neuraminic acid]
not satisfied

Moving on to COC1(C(=O)O)CC(O)C(NC(C)=O)C(C(O)C(O)CNC(=O)Cc2ccccc2)O1 (stereo not drawn)
not satisfied

Moving on to CO[C@]1(C(=O)O)CC(O)[C@@H](NC(C)=O)C([C@@H](O)[C@H](O)CNC(=O)c2ccc(-c3ccccc3)cc2)O1 (stereo partly drawn)
satisfied

Moving on to CO[C@]1(C(=O)O)C[C@H](O)[C@@H](NC(C)=O)[C@H]([C@H](O)[C@H](O)CNC(C)=S)O1
not satisfied

Moving on to CO[C@]1(C(=O)O)C[C@H](O)[C@@H](NC(C)=O)[C@H]([C@H](O)[C@H](O)CNC(=O)c2cccnc2)O1
satisfied

Moving on to CO[C@]1(C(=O)O)C[C@H](O)[C@@H](NC(C)=O)[C@H]([C@H](O)[C@H](O)CNC(=O)CN)O1 [Methyl-α-9-N-aminoacetyl-9-desoxy-Neu5Ac]
not satisfied

Moving on to COC1(C(=O)O)CC(O)C(NC(C)=O)C(C(O)C(O)CNC(=O)C(F)(F)F)O1 (stereo not drawn)
not satisfied

Moving on to CO[C@]1(C(=O)O)C[C@H](O)[C@@H](NC(C)=O)[C@H]([C@H](O)[C@H](O)CS(C)(=O)=O)O1
not satisfied

Moving on to COC1(C(=O)O)CC(O)C(NC(C)=O)C(C(O)C(O)CNS(=O)(=O)c2cccc3c(N(C)C)cccc23)O1 (stereo not drawn)
not satisfied

Moving on to COC1(C(=O)O)CC(O)C(NC(C)=O)C(C(O)C(O)CNC(=O)CC(C)=O)O1 (stereo not drawn)
not satisfied

Moving on to COc1ccc(C(=O)NC[C@@H](O)[C@@H](O)[C@@H]2O[C@@](OC)(C(=O)O)C[C@H](O)[C@H]2NC(C)=O)cc1
satisfied

---

# System Name: Siglec-1 (sialoadhesin) (Mus musculus, UniProt Q62230)
# Sequence (Q62230 20-136 limits assumed): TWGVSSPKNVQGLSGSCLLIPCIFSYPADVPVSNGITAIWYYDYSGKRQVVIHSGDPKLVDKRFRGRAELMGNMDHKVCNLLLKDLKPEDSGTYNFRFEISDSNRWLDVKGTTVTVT
# Assay Protocol: Hapten inhibition assay, Siglec-1 (sialoadhesin)
# Assay type: binding
# Measurement Parameters: unit inferred
Outcome Measure: pIC50
Notebook: values listed as pIC50 are -log10 of the concentration (mol/L).

Solved cases below.
1. CO[C@]1(C(=O)O)C[C@H](O)[C@@H](NC(C)=O)[C@H]([C@H](O)[C@H](O)CNC(=O)c2ccccc2-c2ccccc2)O1: 2.59
2. CO[C@]1(C(=O)O)C[C@H](O)[C@@H](NC(C)=O)[C@H]([C@H](O)[C@H](O)C[S+](C)[O-])O1 (some centres unmarked): 2.70
3. COc1ccc(C(=O)NC[C@@H](O)[C@@H](O)[C@@H]2O[C@@](OC)(C(=O)O)C[C@H](O)[C@H]2NC(C)=O)cc1: 4.38

What pIC50 value was documented for this compound, COC1(C(=O)O)CC(O)C(NC(C)=O)C(C(O)C(O)CNC(=O)C(F)(F)F)O1 (centres unmarked) ?
2.40

Moving on to CO[C@]1(C(=O)O)C[C@H](O)[C@@H](NC(C)=O)[C@H]([C@H](O)[C@H](O)CNC(C)=S)O1
2.22

---

# System Name: Siglec-2 (murine CD22) (Mus musculus)
# Sequence (P35329 22-148 limits assumed): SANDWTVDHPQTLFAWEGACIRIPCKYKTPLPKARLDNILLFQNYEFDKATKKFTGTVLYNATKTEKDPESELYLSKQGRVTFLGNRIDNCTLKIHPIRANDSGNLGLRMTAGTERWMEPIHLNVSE
# Assay Protocol: Hapten inhibition assay, Siglec-2 (murine CD22)
# Assay type: binding
# Measurement Parameters: quotient IC50 reference compound / IC50 compound
Outcome Measure: Siglec-2 (murine CD22) rIP

1. CO[C@]1(C(=O)O)C[C@H](O)[C@@H](NC(C)=O)[C@H]([C@H](O)[C@H](O)CNC(=O)c2ccccc2-c2ccccc2)O1: 9.5
2. CO[C@]1(C(=O)O)C[C@H](O)[C@@H](NC(C)=O)[C@H]([C@H](O)[C@H](O)CNC(=O)Cc2ccc3ccccc3c2)O1: 83
3. CO[C@]1(C(=O)O)C[C@H](O)[C@@H](NC(C)=O)[C@H]([C@H](O)[C@H](O)CNC(=O)c2ccc([N+](=O)[O-])cc2[N+](=O)[O-])O1: 7.9
4. CO[C@]1(C(=O)O)C[C@H](O)[C@@H](NC(C)=O)[C@H]([C@H](O)[C@H](O)CNC(=O)c2cccc3ccccc23)O1: 64
5. CS[C@]1(C(=O)O)C[C@H](O)[C@@H](NC(C)=O)[C@H]([C@H](O)[C@H](O)CO)O1: 1.1

What Siglec-2 (murine CD22) rIP value was documented for this compound, COC1(C(=O)O)CC(O)C(NC(C)=O)C(C(O)C(O)CNC(=O)c2ccc3ccccc3c2)O1 (stereo not shown) ?
18

Moving on to CO[C@]1(C(=O)O)C[C@H](O)[C@@H](NC(C)=O)[C@H]([C@H](O)[C@H](O)CNC(=O)c2cccnc2)O1
14

Moving on to COC1(C(=O)O)CC(O)C(NC(C)=O)C(C(O)C(O)CNC(=O)c2cccc3cc4ccccc4cc23)O1 (stereo not shown)
7.4

Moving on to COC1(C(=O)O)CC(O)C(NC(C)=O)C(C(O)C(O)CNC(=O)c2c(F)c(F)c(F)c(F)c2F)O1 (stereo not shown)
2.0

Moving on to CCOc1c(N[C@H]2[C@H]([C@H](O)[C@H](O)CO)O[C@@](OC)(C(=O)O)C[C@@H]2O)c(=O)c1=O
1.5

Moving on to CO[C@]1(C(=O)O)C[C@H](O)[C@@H](NC(C)=O)[C@H]([C@H](O)[C@H](O)CNC(=O)C2CCCCC2)O1
6.9

---

Siglec-4a (MAG) rIP reference
# System Name: UniProt:P20917
# Sequence (P20917 1-627): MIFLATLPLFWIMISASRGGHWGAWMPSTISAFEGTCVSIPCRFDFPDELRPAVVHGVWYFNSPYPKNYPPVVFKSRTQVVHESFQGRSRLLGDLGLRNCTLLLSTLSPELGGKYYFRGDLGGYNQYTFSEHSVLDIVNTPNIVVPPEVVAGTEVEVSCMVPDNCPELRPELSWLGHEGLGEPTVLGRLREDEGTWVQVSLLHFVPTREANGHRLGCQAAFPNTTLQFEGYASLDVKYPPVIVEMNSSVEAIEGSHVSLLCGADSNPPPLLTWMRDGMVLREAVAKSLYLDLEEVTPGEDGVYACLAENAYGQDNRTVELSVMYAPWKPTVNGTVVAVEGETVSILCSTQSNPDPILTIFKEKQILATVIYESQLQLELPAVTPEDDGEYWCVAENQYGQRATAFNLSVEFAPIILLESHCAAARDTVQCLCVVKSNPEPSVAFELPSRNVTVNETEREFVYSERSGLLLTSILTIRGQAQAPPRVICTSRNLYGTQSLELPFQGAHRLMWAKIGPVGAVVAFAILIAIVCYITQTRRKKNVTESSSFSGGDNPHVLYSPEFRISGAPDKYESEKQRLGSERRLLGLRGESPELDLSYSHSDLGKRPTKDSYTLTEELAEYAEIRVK
# Assay Protocol: Hapten inhibition assay, Siglec-4a (MAG)
# Measurement Parameters: quotient IC50 reference compound / IC50 compound
Just the number, please, no unit after it.

1. CCCCCC(=O)NCC(O)C(O)C1OC(OC)(C(=O)O)CC(O)C1NC(C)=O (stereo not drawn): 54

What Siglec-4a (MAG) rIP value was documented for this molecule, CC(=O)N[C@H]1[C@H]([C@H](O)[C@H](O)CO)O[C@@](O[C@H]2[C@@H](O)[C@@H](CO)O[C@@H](O[C@H]3[C@H](O)[C@@H](O)C(O)O[C@@H]3CO)[C@@H]2O)(C(=O)O)C[C@@H]1O (stereo partly drawn) [2,3-sialyllactose, reference compound] ?
7.3

Moving on to CC(=O)N[C@H]1[C@H]([C@H](O)[C@H](O)CO)O[C@@](SCc2ccccc2)(C(=O)O)C[C@@H]1O
3.0

Moving on to CCOc1c(NC[C@@H](O)[C@@H](O)[C@@H]2O[C@@](OC)(C(=O)O)C[C@H](O)[C@H]2NC(C)=O)c(=O)c1=O
32
